Target: KRAS G12V (Homo sapiens (Human), UniProt P01116+P62937, G12V)
Sequence (P01116-2 other isoform, or with tags, fused parts or gaps G12V): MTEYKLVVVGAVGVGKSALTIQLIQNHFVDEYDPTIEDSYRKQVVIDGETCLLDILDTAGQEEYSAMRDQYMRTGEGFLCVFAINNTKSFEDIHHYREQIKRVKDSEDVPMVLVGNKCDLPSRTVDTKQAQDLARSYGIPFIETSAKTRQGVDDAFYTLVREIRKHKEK
Sequence (P62937 whole entry): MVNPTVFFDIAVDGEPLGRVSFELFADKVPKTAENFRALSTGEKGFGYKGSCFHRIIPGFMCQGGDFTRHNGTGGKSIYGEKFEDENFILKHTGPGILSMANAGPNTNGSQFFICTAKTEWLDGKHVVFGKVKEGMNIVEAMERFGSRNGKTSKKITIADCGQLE
Test: Ras-Raf (BRAF RBD) disruption / FRET / MOA assay, KRAS G12V
Type: biochemical
Conditions: read-out: IC50* KRAS G12V FRET data
This listing pairs compounds with measured IC50.

C=CC(=O)N1CC[C@]2(C1)OCN([C@H](C(=O)N[C@H]1Cc3cccc(c3)-c3ccc4c(c3)c(c(-c3cccnc3[C@H](C)OC)n4CC)CC(C)(C)COC(=O)[C@@H]3CCCN(N3)C1=O)C(C)C)C2=O (atropisomer, axis not shown) :: > 10 µM

Moving on to the next compound.
Summary: C=CC(=O)N1CC[C@H](C(=O)N(C)[C@H](C(=O)N[C@H]2Cc3cc(C(F)F)cc(n3)-c3ccc4c(c3)c(c(-c3cccnc3[C@H](C)OC)n4CC)CC(C)(C)COC(=O)[C@@H]3CCCN(N3)C2=O)C(C)C)C1 (atropisomer, axis not shown) , KRAS G12V (Homo sapiens (Human), UniProt P01116+P62937, G12V), IC50 = > 10 µM
